Values from patent US20250250357A1

test-system: T1, human MSLN-hFc protein (Acro, Cat. No. MSN-H5253) (human, UniProt Q13421 296-580)
T1 construct: the method names the coated protein as human MSLN-hFc (Acro); also called human MSLN full-length protein
T1 sequence (Q13421 other isoform, or with tags, fused parts or gaps limits assumed): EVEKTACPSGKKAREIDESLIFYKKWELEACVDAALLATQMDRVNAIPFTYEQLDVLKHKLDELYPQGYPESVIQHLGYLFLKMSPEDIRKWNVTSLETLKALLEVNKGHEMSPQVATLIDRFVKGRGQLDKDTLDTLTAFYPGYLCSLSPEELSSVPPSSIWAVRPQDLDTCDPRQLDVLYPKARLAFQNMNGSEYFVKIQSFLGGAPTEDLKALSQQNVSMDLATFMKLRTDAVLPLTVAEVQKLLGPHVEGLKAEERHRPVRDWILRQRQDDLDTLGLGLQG
protocol: ELISA on coated antigen, antibody 0.01 nM
reported-endpoint: OD450 (OD450)
Entry rule: numbers only, all in OD450.

Before answering, review these 5 worked examples.
INSERT INTO results (binder, numeric_readout) VALUES
  ('F7.44.20-H15 (scFv, not shown: small tags and cut ends, also called S009-F7.44.20 humanized antibody VH2a + VL3) scFv: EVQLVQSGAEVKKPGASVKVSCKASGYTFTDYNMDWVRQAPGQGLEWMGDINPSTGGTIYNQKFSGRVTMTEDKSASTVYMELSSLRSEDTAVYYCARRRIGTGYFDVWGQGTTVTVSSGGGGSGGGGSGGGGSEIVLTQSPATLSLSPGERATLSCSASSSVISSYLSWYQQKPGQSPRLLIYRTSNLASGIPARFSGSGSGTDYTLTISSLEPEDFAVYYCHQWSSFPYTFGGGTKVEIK', 0.06),
  ('F7.44.20-H1 (scFv, not shown: small tags and cut ends, also called S009-F7.44.20 humanized antibody VH1 + VL1) scFv: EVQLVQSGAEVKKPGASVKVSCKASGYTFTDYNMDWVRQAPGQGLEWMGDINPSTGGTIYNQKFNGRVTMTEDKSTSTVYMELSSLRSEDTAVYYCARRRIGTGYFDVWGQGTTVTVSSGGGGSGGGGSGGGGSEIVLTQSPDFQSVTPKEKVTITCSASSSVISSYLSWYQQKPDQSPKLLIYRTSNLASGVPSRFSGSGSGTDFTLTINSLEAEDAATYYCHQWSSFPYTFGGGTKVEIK', 0.06),
  ('F7.44.20-H14 (scFv, not shown: small tags and cut ends, also called S009-F7.44.20 humanized antibody VH2a + VL2) scFv: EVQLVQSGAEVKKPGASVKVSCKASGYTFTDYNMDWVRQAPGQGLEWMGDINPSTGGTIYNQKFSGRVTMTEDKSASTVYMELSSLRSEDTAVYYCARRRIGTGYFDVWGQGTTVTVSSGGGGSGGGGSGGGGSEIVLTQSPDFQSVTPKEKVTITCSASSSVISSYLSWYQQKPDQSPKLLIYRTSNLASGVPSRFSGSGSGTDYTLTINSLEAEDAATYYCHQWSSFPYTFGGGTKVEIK', 0.07),
  ('F7.44.20-H9 (scFv, not shown: small tags and cut ends, also called S009-F7.44.20 humanized antibody VH2 + VL1) scFv: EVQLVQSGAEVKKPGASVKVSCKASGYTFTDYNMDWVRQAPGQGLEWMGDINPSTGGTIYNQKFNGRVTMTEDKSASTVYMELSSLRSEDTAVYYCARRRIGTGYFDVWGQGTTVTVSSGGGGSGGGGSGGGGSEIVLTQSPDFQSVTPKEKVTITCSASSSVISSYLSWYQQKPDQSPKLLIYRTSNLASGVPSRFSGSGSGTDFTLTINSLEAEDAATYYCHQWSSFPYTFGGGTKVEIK', 0.06),
  ('F7.44.20-H2 (scFv, not shown: small tags and cut ends, also called S009-F7.44.20 humanized antibody VH1 + VL2) scFv: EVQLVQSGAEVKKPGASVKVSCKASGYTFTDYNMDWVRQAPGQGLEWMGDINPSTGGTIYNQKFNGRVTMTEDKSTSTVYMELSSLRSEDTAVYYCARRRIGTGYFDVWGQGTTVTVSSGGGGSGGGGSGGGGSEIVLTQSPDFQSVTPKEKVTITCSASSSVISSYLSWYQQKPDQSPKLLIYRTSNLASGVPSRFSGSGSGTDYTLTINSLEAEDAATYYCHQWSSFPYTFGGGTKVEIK', 0.05);

We next turn to a different binder, shown below.
Fill in: OD450 of F7.44.20-H3 (scFv, not shown: small tags and cut ends, also called S009-F7.44.20 humanized antibody VH1 + VL3) scFv: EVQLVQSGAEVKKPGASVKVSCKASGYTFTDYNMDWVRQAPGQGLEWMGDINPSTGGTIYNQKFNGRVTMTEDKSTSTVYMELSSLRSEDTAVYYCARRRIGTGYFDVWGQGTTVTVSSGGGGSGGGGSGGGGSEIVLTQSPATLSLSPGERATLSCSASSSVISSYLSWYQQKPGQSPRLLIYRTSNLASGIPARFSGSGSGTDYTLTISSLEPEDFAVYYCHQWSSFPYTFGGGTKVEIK is ___
0.06
